Here's a batch of compounds along with measured pKi for HPK1 (Homo sapiens (Human), UniProt Q92918).
pKi: −log10 of the molar value.
ENDPOINT_LABEL: pKi

CN1CCN(c2cccc3c(-c4cnc5c(c4Cl)[C@]4(CC[C@H](C(N)=O)C4)CN5)c[nH]c23)C(=O)C1 (relative stereo) [Compound 304a]	7.36

A = Nc1cc(-c2cnc3c(c2)C2(CC2)CN3)nc(N2CCOC2=O)c1 [Compound 292]
B = C[C@]1(C(N)=O)CC[C@@]2(CNc3ncc(-c4cccc(N5CCOCC5=O)c4F)c(Cl)c32)C1 (single isomer, unassigned) [Compound 202b]
Looking only at measured pKi, which entry is lower, A or B ? Select an item and report its label. A
(A: 6.90, B: 7.66)

====

Here's a batch of molecules along with measured Ki for UniProt Q92918.
ENDPOINT_LABEL: Ki (nM)

// below: answered molecules
CC1Nc2ncc(-c3ccc(N)c(C(=O)N(C)C)c3F)cc2C12CC2 (stereo not shown)	122
CN(C)C(=O)c1c(N)ccc(-c2cnc3c(c2)[C@]2(CN3)C[C@@H](n3cncn3)C2)c1F [Compound 88a]	126

a = CN(C)C(=O)c1c(N)ccc(-c2cnc3c(c2)[C@]2(CN3)C[C@@H](C#N)C2)c1F [Compound 96a]
b = CC[C@@H]1C[C@@]12CNc1ncc(-c3ccc(N)c(C(=O)N(C)C)c3F)cc12 (single isomer, unassigned) [Compound 243c]
Given a and b , report the one with the higher recorded Ki. Select an item and report its label. a

====

Target: HPK1 (Homo sapiens (Human), UniProt Q92918)
Sequence (Q92918 1-346 limits assumed): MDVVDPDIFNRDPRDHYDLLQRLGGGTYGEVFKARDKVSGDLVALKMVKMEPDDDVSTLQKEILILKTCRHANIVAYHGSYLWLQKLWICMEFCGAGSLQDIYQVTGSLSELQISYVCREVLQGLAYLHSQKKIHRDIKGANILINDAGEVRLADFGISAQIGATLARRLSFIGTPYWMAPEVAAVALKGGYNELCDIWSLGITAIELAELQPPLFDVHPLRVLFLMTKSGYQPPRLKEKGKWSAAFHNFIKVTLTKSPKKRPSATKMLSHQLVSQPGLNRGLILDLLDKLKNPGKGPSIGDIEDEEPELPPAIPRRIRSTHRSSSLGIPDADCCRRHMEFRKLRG
ENDPOINT_LABEL: Ki (nM)

CN(C)C(=O)c1c(N)ccc(-c2cnc3c(c2Cl)[C@]2(CC[C@H](N4CCCC4=O)C2)CN3)c1F (single isomer, unassigned) [Compound 143a]	157
CC(C)C1CN(C(=O)c2cccc(-c3cnc4c(c3)C3(CC3)CN4)c2F)C1	120
O=C(c1cccc(-c2cnc3c(c2Cl)C2(CC2)CN3)c1F)N(CCO)CCO	88.5

P = Cc1ccnn1[C@H]1CC[C@@]2(CNc3ncc(-c4ccc(N)c(C(=O)N(C)C)c4F)c(Cl)c32)C1 [Compound 160a]
Q = CC(=O)N1CC2(CNc3ncc(-c4ccc(N)c(C(=O)N(C)C)c4F)cc32)C1
Given P and Q , report the one with the higher recorded Ki. Select an item and report its label. Q
(Q: 916 nM, P: 56.5 nM)

1 = CN(C)C(=O)c1c(N)ccc(-c2cnc3c(c2Cl)[C@]2(CC[C@H](N4CCNC4=O)C2)CN3)c1F (relative stereo) [Compound 115a]
2 = CN(C)C(=O)c1c(N)ccc(-c2cnc3c(c2Cl)[C@@]2(CN3)C[C@H](O)[C@@H](n3ccnn3)C2)c1F (single isomer, unassigned) [Compound 146c]
Looking only at measured Ki, which entry is lower, 1 or 2 ? Select an item and report its label. 1
(1: 23 nM, 2: 74.6 nM)

====

Molecular target: HPK1 (Homo sapiens (Human))
pKi: −log10 of the molar value.
ENDPOINT_LABEL: pKi

A = CN(C(=O)c1c(N)ccc(-c2cnc3c(c2)C2(CC2)CN3)c1F)C(C)(C)CO
B = Nc1ccc(-c2cnc3c(c2Cl)C2(CC2)CN3)cc1C(=O)N1C2CCC1CC2
Given A and B , report the one with the higher recorded pKi. Select an item and report its label. B

A = CN(C)C(=O)c1c(N)ccc(-c2cnc3c(c2Cl)[C@]2(CC[C@H](N4CCOCC4)C2)CN3)c1F (relative stereo) [Compound 120a]
B = CN(C)C(=O)c1c(N)ccc(-c2cnc3c(c2Cl)[C@]2(CC[C@H](CC(N)=O)C2)CN3)c1F (relative stereo) [Compound 135a]
Given A and B , report the one with the higher recorded pKi. Select an item and report its label. B

P = Nc1ccc(-c2cnc3c(c2)C2(CC2)CN3)nc1C(=O)N1CC[C@H](O)C1 [Compound 290a]
Q = CN(C)C(=O)c1c(N)ccc(-c2cnc3c(c2Cl)[C@]2(CC[C@@](C)(O)CC2)CN3)c1F [Compound 194a]
Looking only at measured pKi, which entry is lower, P or Q ? Select an item and report its label. P
(P: 6.25, Q: 7.52)

A = Cn1cc(C2CCCCN2C(=O)c2c(N)ccc(-c3cnc4c(c3Cl)[C@]3(CC[C@H](O)CC3)CN4)c2F)cn1 (single isomer, unassigned) [Compound 254b]
B = Cn1cc([C@H]2CCCCN2C(=O)c2cccc(-c3cnc4c(c3Cl)C3(CC=CC3)CN4)c2F)cn1 (single isomer, unassigned) [Compound 240a]
Looking only at measured pKi, which entry is lower, A or B ? Select an item and report its label. A
(A: 6.96, B: 8.41)
